Tested on: E. coli AG100
Experiment: Broth microdilution MIC in CAMHB
Format: cell-based
Conditions: Escherichia coli; E. coli AG100 (wild-type parent); MHB; read-out: Minimum Inhibitory Concentration, E. coli AG100
Overview of recorded MIC for various compounds

INSERT INTO assay_data (compound, metric, result) VALUES
  ('NCCN1CCN(C(=O)N[C@H](C(=O)N[C@H]2Cc3cccc(C(=O)O)c3OB2O)c2ccc(O)c(Cl)c2F)C(=O)C1=O (single isomer, unassigned) [Example 187]', 'MIC', '> 128 µg/mL'),
  ('CCN1CCN(C(=O)NC(C(=O)N[C@H]2Cc3cccc(C(=O)O)c3OB2O)c2c(F)cc(NC(C)=O)cc2F)C(=O)C1=O (some centres unmarked) [Example 188]', 'MIC', '32 to 64 µg/mL'),
  ('CCN1CCN(C(=O)NC(C(=O)N[C@H]2Cc3cccc(C(=O)O)c3OB2O)c2cc(NS(N)(=O)=O)ccc2F)C(=O)C1=O (some centres unmarked) [Example 197]', 'MIC', '8 to 16 µg/mL'),
  ('O=C(Nc1ccccc1)NC(C(=O)N[C@H]1Cc2ccc(F)c(C(=O)O)c2OB1O)c1ncc(O)cc1F (some centres unmarked) [Example 49]', 'MIC', '> 128 µg/mL'),
  ('NCCCN1CCN(C(=O)N[C@@H](C(=O)N[C@H]2Cc3cccc(C(=O)O)c3OB2O)c2c(O)cc(O)cc2F)C(=O)C1=O (single isomer, unassigned) [Example 195]', 'MIC', '8 to 16 µg/mL');

Proceed to the following item.
## Task Give the reported value of MIC for this record: O=C(O)c1cccc2c1OB(O)[C@@H](NC(=O)C(NC(=O)N1CCN(CCF)C(=O)C1=O)c1c(F)cc(O)cc1F)C2 (mixture of isomers) [Example 119]
## Result 8 to 16 µg/mL

Data origin, for the record: patent US20230114728A1
